Tested on: DENV-3 strain H87
test_protocol: Tetravalent RT-qPCR assay, serotype 3
Assay type: cell-based, Dengue virus
experimental_setup: RT-qPCR serotype 3 H87, Protocol A, Vero cells, day 3
parameter_measured: pEC50
One number for each entry, as −log10 of the molar value.

Form: compound = COc1cc(NC(C(=O)N2CCc3ccc(C(F)(F)F)cc32)c2ccc(Cl)cc2)cc(OCCO)c1 (single isomer, unassigned) [Compound 4A] ; pEC50 = 7.57

====

parameter_measured: melting point (°C)
Give bare numbers, in °C.

Field: melting point. Fill in for each record below.
1. COc1cc(NC(C(=O)N2CCc3cc(F)c(C(F)(F)F)cc32)c2ccc(Cl)cc2)cc(OCCO)c1 (racemic) [Compound 12]
2. COc1cc(NC(C(=O)N2CCc3cc(OC)c(C(F)(F)F)cc32)c2ccc(Cl)cc2OC)cc(OCCO)c1 (racemic) [Compound 11]

Key:
[130, 175]
